- Assay Info: Pharmacokinetic study
- Format: in vivo, SD rats
- Reported Conditions: SD, rat, plasma; PO 50 mg/kg, male

Compound	Tmax, h
CN1CCN(Cc2ccc(-c3cnc(N4CCOC(Cn5nnc6ncc(-c7cnn(C)c7)nc65)C4)nc3)cc2)CC1 (stereo not shown)	2

====

- Assay Info: Pharmacokinetic study
- Assay type: in vivo, SD rats
- Reported Conditions: SD, rat, plasma; PO 20 mg/kg, male
Measure: Cmax (ng/mL)

Compound	Measure	Scale Unit	Result Number
CN1CCN(Cc2ccc(-c3cnc(N4CCOC(Cn5nnc6ncc(-c7cnn(C)c7)nc65)C4)nc3)cc2)CC1 (stereo not shown) [ABN401]	Cmax	ng/mL	1020

====

- Assay Info: in vivo
- Reported Conditions: BALB/c-nude, mouse, plasma, po, 10 mg/kg

Molecule	CL/F (mL/min/kg)
CN1CCN(Cc2ccc(-c3cnc(N4CCOC(Cn5nnc6ncc(-c7cnn(C)c7)nc65)C4)nc3)cc2)CC1 (stereo not shown)	50

====

- Assay Info: Pharmacokinetic study
- Format: in vivo, beagle dogs
- Reported Conditions: beagle, dog, plasma; IV 2 mg/kg, male
Measure: MRT last (h)

Compound	Result Number
CN1CCN(Cc2ccc(-c3cnc(N4CCOC(Cn5nnc6ncc(-c7cnn(C)c7)nc65)C4)nc3)cc2)CC1 (stereo not shown) [ABN401]	4.79

====

- Assay Info: in vivo
- Reported Conditions: mouse, tumor tissue, oral, 30 mg/kg

Compound	Scale Unit	concentration at 72 h
CN1CCN(Cc2ccc(-c3cnc(N4CCOC(Cn5nnc6ncc(-c7cnn(C)c7)nc65)C4)nc3)cc2)CC1 (stereo not shown)	ng/mL	15.9

====

- Assay Info: Pharmacokinetic study
- Format: in vivo, beagle dogs
- Reported Conditions: beagle, dog, plasma; PO 2 mg/kg, male

Compound	Cmax (ng/mL)
CN1CCN(Cc2ccc(-c3cnc(N4CCOC(Cn5nnc6ncc(-c7cnn(C)c7)nc65)C4)nc3)cc2)CC1 (stereo not shown)	9.2

====

- Assay Info: Pharmacokinetic study
- Assay type: in vivo, beagle dogs
- Reported Conditions: beagle, dog, plasma; PO 10 mg/kg, male

Molecule	Cmax, ng/mL
CN1CCN(Cc2ccc(-c3cnc(N4CCOC(Cn5nnc6ncc(-c7cnn(C)c7)nc65)C4)nc3)cc2)CC1 (stereo not shown)	65.3

====

- Assay Info: Pharmacokinetic study
- Assay type: in vivo, SD rats
- Reported Conditions: both sexes, SD, rat, plasma; oral; read-out: bioavailability F%

Molecule	bioavailability
CN1CCN(Cc2ccc(-c3cnc(N4CCOC(Cn5nnc6ncc(-c7cnn(C)c7)nc65)C4)nc3)cc2)CC1 (stereo not shown) [ABN401]	42.1 to 56.2%

====

- Assay Info: in vivo
- Reported Conditions: BALB/c-nude, mouse, EBC-1 tumor tissue / plasma, oral, 30 mg/kg

Compound	Kp
CN1CCN(Cc2ccc(-c3cnc(N4CCOC(Cn5nnc6ncc(-c7cnn(C)c7)nc65)C4)nc3)cc2)CC1 (stereo not shown)	4.25

====

- Assay Info: Pharmacokinetic study
- Type: in vivo, beagle dogs
- Reported Conditions: beagle, dog, plasma; PO 5 mg/kg, male
Measure: Tmax

Compound	Result
CN1CCN(Cc2ccc(-c3cnc(N4CCOC(Cn5nnc6ncc(-c7cnn(C)c7)nc65)C4)nc3)cc2)CC1 (stereo not shown)	4 h

====

- Assay Info: Pharmacokinetic study
- Type: in vivo, beagle dogs
- Reported Conditions: beagle, dog, plasma; PO 2 mg/kg, female; read-out: F

Molecule	Scale Unit	bioavailability
CN1CCN(Cc2ccc(-c3cnc(N4CCOC(Cn5nnc6ncc(-c7cnn(C)c7)nc65)C4)nc3)cc2)CC1 (stereo not shown)	%	37.7

====

- Assay Info: Pharmacokinetic study
- Type: in vivo, beagle dogs
- Reported Conditions: beagle, dog, plasma; IV 2 mg/kg, male
Measure: C0 (ng/mL)

Compound	Result Number
CN1CCN(Cc2ccc(-c3cnc(N4CCOC(Cn5nnc6ncc(-c7cnn(C)c7)nc65)C4)nc3)cc2)CC1 (stereo not shown)	172

====

- Assay Info: Pharmacokinetic study
- Format: in vivo, SD rats
- Reported Conditions: SD, rat, plasma; PO 5 mg/kg, male

Compound	Tmax
CN1CCN(Cc2ccc(-c3cnc(N4CCOC(Cn5nnc6ncc(-c7cnn(C)c7)nc65)C4)nc3)cc2)CC1 (stereo not shown) [ABN401]	2 h

====

- Assay Info: Pharmacokinetic study
- Format: in vivo, SD rats
- Reported Conditions: SD, rat, plasma; PO 5 mg/kg, male
Measure: MRT last (h)

Compound	Result Number
CN1CCN(Cc2ccc(-c3cnc(N4CCOC(Cn5nnc6ncc(-c7cnn(C)c7)nc65)C4)nc3)cc2)CC1 (stereo not shown)	4.9

====

- Assay Info: Pharmacokinetic study
- Format: in vivo, beagle dogs
- Reported Conditions: beagle, dog, plasma; PO 2 mg/kg, female
Measure: Tmax

Compound	Measure	Result
CN1CCN(Cc2ccc(-c3cnc(N4CCOC(Cn5nnc6ncc(-c7cnn(C)c7)nc65)C4)nc3)cc2)CC1 (stereo not shown)	Tmax	1 h

====

- Assay Info: Pharmacokinetic study
- Assay type: in vivo, beagle dogs
- Reported Conditions: both sexes, beagle, dog, plasma; oral; read-out: bioavailability F%

Compound	bioavailability
CN1CCN(Cc2ccc(-c3cnc(N4CCOC(Cn5nnc6ncc(-c7cnn(C)c7)nc65)C4)nc3)cc2)CC1 (stereo not shown) [ABN401]	27.4 to 37.7%

====

- Assay Info: Pharmacokinetic study
- Type: in vivo, beagle dogs
- Reported Conditions: beagle, dog, plasma; PO 10 mg/kg, male; read-out: F
- Description: […] The linear log trapezoidal algorithm weighting, 1/Y × Y, was used for parameter calculation. The mean PK parameters were calculated in individual animals from each treatment group. Concentrations below the lower limit of quantification (BLLOQ) were excluded from the calculation of PK parameters. The mean values of the PK parameters were calculated using Microsoft Excel.

Compound	Scale Unit	bioavailability
CN1CCN(Cc2ccc(-c3cnc(N4CCOC(Cn5nnc6ncc(-c7cnn(C)c7)nc65)C4)nc3)cc2)CC1 (stereo not shown)	%	27.5

====

- Assay Info: Pharmacokinetic study
- Format: in vivo, SD rats
- Reported Conditions: SD, rat, plasma; PO 20 mg/kg, male; read-out: F

Molecule	bioavailability (%)
CN1CCN(Cc2ccc(-c3cnc(N4CCOC(Cn5nnc6ncc(-c7cnn(C)c7)nc65)C4)nc3)cc2)CC1 (stereo not shown) [ABN401]	33.6

====

- Assay Info: in vivo
- Reported Conditions: BALB/c-nude, mouse, EBC-1 and SNU-5 tumor tissue / plasma, oral, 30 mg/kg
Measure: Kp

Compound	Measure	Result
CN1CCN(Cc2ccc(-c3cnc(N4CCOC(Cn5nnc6ncc(-c7cnn(C)c7)nc65)C4)nc3)cc2)CC1 (stereo not shown) [ABN401]	Kp	2.66 to 4.25

====

- Assay Info: Pharmacokinetic study
- Type: in vivo, cynomolgus monkeys
- Reported Conditions: cynomolgus monkey, plasma; IV 1 mg/kg, male
Measure: Tmax (min)

Compound	Result Number
CN1CCN(Cc2ccc(-c3cnc(N4CCOC(Cn5nnc6ncc(-c7cnn(C)c7)nc65)C4)nc3)cc2)CC1 (stereo not shown)	4.98

====

- Assay Info: Pharmacokinetic study
- Format: in vivo, cynomolgus monkeys
- Reported Conditions: cynomolgus monkey, plasma; PO 1 mg/kg capsule, male

Molecule	Cmax, ng/mL
CN1CCN(Cc2ccc(-c3cnc(N4CCOC(Cn5nnc6ncc(-c7cnn(C)c7)nc65)C4)nc3)cc2)CC1 (stereo not shown) [ABN401]	1.9

====

- Assay Info: Pharmacokinetic study
- Type: in vivo, cynomolgus monkeys
- Reported Conditions: cynomolgus monkey, plasma; IV 1 mg/kg, male
Measure: half-life (min)

Compound	Result Number
CN1CCN(Cc2ccc(-c3cnc(N4CCOC(Cn5nnc6ncc(-c7cnn(C)c7)nc65)C4)nc3)cc2)CC1 (stereo not shown) [ABN401]	52.8

====

- Assay Info: in vivo
- Reported Conditions: mouse, tumor tissue, oral, 30 mg/kg

Compound	concentration at 2 h / ng/mL
CN1CCN(Cc2ccc(-c3cnc(N4CCOC(Cn5nnc6ncc(-c7cnn(C)c7)nc65)C4)nc3)cc2)CC1 (stereo not shown)	2920

====

- Assay Info: in vivo
- Reported Conditions: BALB/c-nude, mouse, SNU-5 tumor tissue / plasma, oral, 30 mg/kg

Molecule	Kp
CN1CCN(Cc2ccc(-c3cnc(N4CCOC(Cn5nnc6ncc(-c7cnn(C)c7)nc65)C4)nc3)cc2)CC1 (stereo not shown)	2.66

====

- Assay Info: in vivo
- Reported Conditions: BALB/c-nude, mouse, tumor, po, 30 mg/kg
Measure: Cmax (ng/mL)

Compound	Measure	Result Number
CN1CCN(Cc2ccc(-c3cnc(N4CCOC(Cn5nnc6ncc(-c7cnn(C)c7)nc65)C4)nc3)cc2)CC1 (stereo not shown) [ABN401]	Cmax	2920

====

- Assay Info: Pharmacokinetic study
- Format: in vivo, SD rats
- Reported Conditions: SD, rat, plasma; PO 50 mg/kg, male; read-out: F
- Description: […] The linear log trapezoidal algorithm weighting, 1/Y × Y, was used for parameter calculation. The mean PK parameters were calculated in individual animals from each treatment group. Concentrations below the lower limit of quantification (BLLOQ) were excluded from the calculation of PK parameters. The mean values of the PK parameters were calculated using Microsoft Excel.
Measure: bioavailability (%)

Molecule	Scale Unit	Result Number
CN1CCN(Cc2ccc(-c3cnc(N4CCOC(Cn5nnc6ncc(-c7cnn(C)c7)nc65)C4)nc3)cc2)CC1 (stereo not shown)	%	22.2

Cited source: paper PMC7352216
